Tested Target: Alpha2D adrenergic receptor (Rattus norvegicus)
Construct: aliquots of the synaptic membrane fraction; from tissue; host or cells: rat cerebral cortex, synaptic membrane fraction
Sequence (P22909 1-465): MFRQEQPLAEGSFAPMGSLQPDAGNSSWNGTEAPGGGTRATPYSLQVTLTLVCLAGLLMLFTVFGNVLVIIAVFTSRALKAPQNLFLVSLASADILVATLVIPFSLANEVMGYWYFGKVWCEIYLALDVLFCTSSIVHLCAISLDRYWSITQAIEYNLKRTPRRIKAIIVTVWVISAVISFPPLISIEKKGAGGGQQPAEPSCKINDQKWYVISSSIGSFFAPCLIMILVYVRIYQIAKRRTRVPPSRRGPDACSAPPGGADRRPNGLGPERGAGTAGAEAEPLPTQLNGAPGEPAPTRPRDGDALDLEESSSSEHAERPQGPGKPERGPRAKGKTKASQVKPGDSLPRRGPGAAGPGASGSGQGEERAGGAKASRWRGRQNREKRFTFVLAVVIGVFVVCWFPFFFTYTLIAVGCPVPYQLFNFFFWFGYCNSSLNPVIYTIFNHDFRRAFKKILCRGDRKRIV
Assay Explanation: Alpha2D adrenergic receptor binding assay (3H-paraaminoclonidine, rat cortex synaptic membranes)
Design: species or system Wistar rats
Procedure: Alpha2D adrenergic receptor binding assay Male, Wistar rats (150-250 g, VAF, Charles River, Kingston, N.Y.) are sacrificed by cervical dislocation and their brains removed and placed immediately in ice cold HEPES buffered sucrose. The cortex is dissected out and homogenized in 20 volumes of HEPES sucrose in a Teflon®-glass homogenizer. […] Following washing of the sheets with 10 mM HEPES buffer, the adhering radioactivity is quantified by liquid scintillation spectrometry. […]
Where a name gives a salt, the structure may show the parent alone.
Attribute Measured: pKi
Here pKi is given on a logarithmic scale as minus log10 of the concentration in mol/L.

Look over these answered cases.
Cc1cscc1Cc1c[nH]cn1.O=C(O)/C=C/C(=O)O [Cp-2, Fumarate] : 9.33
Cc1csc(C)c1Cc1c[nH]cn1 [Cp-8, Fumarate] : 10.00
CCc1sccc1Cc1c[nH]cn1.O=C(O)/C=C/C(=O)O [Cp-7, fumarate] : 10.15
Cc1cscc1C(C)c1c[nH]cn1.O=C(O)/C=C/C(=O)O (centres unmarked) [Cp-3, Fumarate] : 9.41

// next entry
pKi lookup needed for CCc1cscc1C(C)c1c[nH]cn1 (centres unmarked) [Cp-10, fumarate] , thanks.
9.55

---

Tested Target: Alpha2D adrenergic receptor (Rattus norvegicus)
Construct: aliquots of the synaptic membrane fraction; from tissue; host or cells: rat cerebral cortex, synaptic membrane fraction
Sequence (P22909 1-465): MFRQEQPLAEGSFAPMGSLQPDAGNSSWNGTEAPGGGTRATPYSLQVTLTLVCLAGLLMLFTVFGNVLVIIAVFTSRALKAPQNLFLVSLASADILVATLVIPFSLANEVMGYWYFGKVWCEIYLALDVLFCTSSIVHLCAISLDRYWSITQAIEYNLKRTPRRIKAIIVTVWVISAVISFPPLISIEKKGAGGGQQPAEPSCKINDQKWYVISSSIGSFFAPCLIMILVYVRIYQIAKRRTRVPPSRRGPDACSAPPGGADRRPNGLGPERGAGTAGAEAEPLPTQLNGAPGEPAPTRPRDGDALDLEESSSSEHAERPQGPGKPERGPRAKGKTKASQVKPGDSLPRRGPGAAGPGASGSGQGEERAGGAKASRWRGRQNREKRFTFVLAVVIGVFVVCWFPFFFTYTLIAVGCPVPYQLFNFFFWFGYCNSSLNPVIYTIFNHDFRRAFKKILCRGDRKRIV
Assay Explanation: Alpha2D adrenergic receptor binding assay (3H-paraaminoclonidine, rat cortex synaptic membranes)
Parameters: species or system Wistar rats
Counter-ions that a name gives are not always drawn.
// NB: equality with 0.7 nM counts as n; only Ki strictly below is y

Cc1sccc1Cc1c[nH]cn1 [Cp-1, Fumarate] : y
CCc1cscc1Cc1c[nH]cn1 [Cp-9, fumarate] : y
CCC(c1c[nH]cn1)c1cscc1C (centres unmarked) [Cp-4, Fumarate] : n

# next compound below
Input CCc1cc(Cc2c[nH]cn2)c(CC)s1.O=C(O)/C=C/C(=O)O [Cp-6, Fumarate] ; condition: Ki strictly below 0.7 nM. Does it hold?
y
